Listing of recorded activity, negative = inhibition by entry.
# subject of test: Cytochrome P450 3A4 (Homo sapiens) (UniProt P08684)
# Sequence (P08684 whole entry, looked up): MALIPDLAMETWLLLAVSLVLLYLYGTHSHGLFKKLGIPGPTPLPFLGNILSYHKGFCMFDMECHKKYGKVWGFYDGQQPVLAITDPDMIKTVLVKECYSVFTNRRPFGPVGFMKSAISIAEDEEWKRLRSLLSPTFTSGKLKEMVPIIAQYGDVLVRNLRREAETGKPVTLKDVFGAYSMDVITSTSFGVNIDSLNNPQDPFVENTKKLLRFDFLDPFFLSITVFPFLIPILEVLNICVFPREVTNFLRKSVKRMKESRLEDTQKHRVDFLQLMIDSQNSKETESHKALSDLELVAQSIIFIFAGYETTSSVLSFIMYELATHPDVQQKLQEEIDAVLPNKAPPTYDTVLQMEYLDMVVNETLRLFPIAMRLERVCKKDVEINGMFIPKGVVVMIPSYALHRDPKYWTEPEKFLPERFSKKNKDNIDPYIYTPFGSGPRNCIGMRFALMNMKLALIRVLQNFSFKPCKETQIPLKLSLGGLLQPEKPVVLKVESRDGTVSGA
# method notes: Cytochrome panel assay with activity outcomes; note: % is set by controls: 0 for no effect and ±100 for the full control effect
# recorded conditions: recombinant CYP, pro-luciferin dealkylation, luminescence, p450-cyp3a4; series mostly up to 57.1 µM
Out of some 16,000 compounds screened, about 5,100 (32%) were called active. Inconclusive results (about 25%) are left out. Some of the results follow.

Answered cases to consult:
O[C@]1(c2ccccc2)c2ccccc2NC2=NCCN21 : 3.31% [at 11.4 µM] (inactive)
C/C(=C\c1ccc(Cl)cc1)C(C)(C)C(=O)O : -11.2% [at 11.4 µM] (inactive)
O=C1C(=O)c2ccccc2C(O)=C1C(CCc1ccccc1)C1=C(O)c2ccccc2C(=O)C1=O : -5.65% [at 11.4 µM] (inactive)

Let us examine a further case.
activity, negative = inhibition for COc1ccc(NC(=O)CSc2nc(-c3ccc(C)cc3)cc(C(F)(F)F)c2C#N)cc1 is 0.258% [at 2.29 µM] (inactive)
